All figures here come from paper PMC8256334.

Assay: PK study in rats after single i.g. administration of IMMH-010 maleate
Assay type: in vivo, Sprague-Dawley rats
Details: female, Sprague-Dawley, po; rat plasma; single i.g. IMMH-010 maleate 100 mg/kg; mean ± SD, n = 5; read-out: MRT(0-t)
REPORTED_PROPERTY: MRT last (h)

COMPOUND | UNIT_LABEL | NUMERIC_READOUT
O=C(O)[C@H](CO)NCc1cc(Cl)c(OCc2cccc(-c3ccccc3)c2Br)cc1OCc1cccnc1 [YPD-29B] | h | 2.88
CC(C)OC(=O)C(CO)NCc1cc(Cl)c(OCc2cccc(-c3ccccc3)c2Br)cc1OCc1cccnc1 (centres unmarked) | h | 1.82

----------
Experiment: Tissue distribution study in rats
Format: in vivo, Sprague-Dawley rats
Details: female, Sprague-Dawley, rat, oral; adrenal gland; time 0.5; i.g. 10 mg/kg IMMH-010 maleate; read-out: T/P (tissue-to-plasma partition)
Overview of recorded Kp at 0.5 h for various compounds
REPORTED_PROPERTY: Kp at 0.5 h

COMPOUND | REPORTED_PROPERTY | NUMERIC_READOUT
CC(C)OC(=O)C(CO)NCc1cc(Cl)c(OCc2cccc(-c3ccccc3)c2Br)cc1OCc1cccnc1 (centres unmarked) | Kp at 0.5 h | 51.1
O=C(O)[C@H](CO)NCc1cc(Cl)c(OCc2cccc(-c3ccccc3)c2Br)cc1OCc1cccnc1 [YPD-29B] | Kp at 0.5 h | 0.7

----------
Experiment: Tissue distribution study in rats
Assay type: in vivo, Sprague-Dawley rats
Conditions: female, Sprague-Dawley, rat, oral; lymph; time 0.5; i.g. 10 mg/kg IMMH-010 maleate; read-out: T/P (tissue-to-plasma partition)
Overview of recorded Kp at 0.5 h for various compounds

COMPOUND | Kp at 0.5 h
CC(C)OC(=O)C(CO)NCc1cc(Cl)c(OCc2cccc(-c3ccccc3)c2Br)cc1OCc1cccnc1 (centres unmarked) [IMMH-010] | 21.2
O=C(O)[C@H](CO)NCc1cc(Cl)c(OCc2cccc(-c3ccccc3)c2Br)cc1OCc1cccnc1 [YPD-29B] | 6.8

----------
Assay: PK study in rats after single i.g. administration of IMMH-010 maleate
Type: in vivo, Sprague-Dawley rats
Settings: female, Sprague-Dawley, po; rat plasma; single i.g. IMMH-010 maleate 30 mg/kg; mean ± SD, n = 5; read-out: MRT(0-t)
Excerpt: Female Sprague-Dawley rats (200 ± 20 g, Vital River, Beijing, China) were kept in standard environmental conditions. Rats were fasted overnight with free access to water and randomly assigned to different groups before the experiments. All animal protocols were approved by the Institute Animal Care and Welfare Committee of the Institute of Materia Medica, Chinese Academy of Medical Sciences and Peking Union Medical College. IMMH-010 maleate was suspended in 0.5% sodium carboxymethyl cellulose. […]

MOLECULE | MRT last, h
O=C(O)[C@H](CO)NCc1cc(Cl)c(OCc2cccc(-c3ccccc3)c2Br)cc1OCc1cccnc1 [YPD-29B] | 1.55
CC(C)OC(=O)C(CO)NCc1cc(Cl)c(OCc2cccc(-c3ccccc3)c2Br)cc1OCc1cccnc1 (centres unmarked) | 1.09

----------
Test: PK study in rats after single i.g. administration of IMMH-010 maleate
Type: in vivo, Sprague-Dawley rats
Settings: female, Sprague-Dawley, po; rat plasma; single i.g. IMMH-010 maleate 10 mg/kg; mean ± SD, n = 5; read-out: MRT(0-∞)
REPORTED_PROPERTY: MRT inf

COMPOUND | RESULT
O=C(O)[C@H](CO)NCc1cc(Cl)c(OCc2cccc(-c3ccccc3)c2Br)cc1OCc1cccnc1 [YPD-29B] | 2.27 h

----------
Assay: PK study in rats after single i.g. administration of IMMH-010 maleate
Assay type: in vivo, Sprague-Dawley rats
Details: female, Sprague-Dawley, po; rat plasma; single i.g. IMMH-010 maleate 10 mg/kg; mean ± SD, n = 5; read-out: MRT(0-t)
Overview of recorded MRT last for various compounds
REPORTED_PROPERTY: MRT last (h)

COMPOUND | NUMERIC_READOUT
O=C(O)[C@H](CO)NCc1cc(Cl)c(OCc2cccc(-c3ccccc3)c2Br)cc1OCc1cccnc1 [YPD-29B] | 1.5
CC(C)OC(=O)C(CO)NCc1cc(Cl)c(OCc2cccc(-c3ccccc3)c2Br)cc1OCc1cccnc1 (centres unmarked) [IMMH-010] | 0.8

----------
Overview of recorded half-life for various compounds
Assay: PK study in rats after single i.g. administration of IMMH-010 maleate
Format: in vivo, Sprague-Dawley rats
Conditions: female, Sprague-Dawley, rat, plasma, po, 30 mg/kg, rat plasma; single i.g. IMMH-010 maleate 30 mg/kg; mean ± SD, n = 5; read-out: t1/2β (converted)

COMPOUND | half-life [h]
O=C(O)[C@H](CO)NCc1cc(Cl)c(OCc2cccc(-c3ccccc3)c2Br)cc1OCc1cccnc1 [YPD-29B] | 3.65
CC(C)OC(=O)C(CO)NCc1cc(Cl)c(OCc2cccc(-c3ccccc3)c2Br)cc1OCc1cccnc1 (centres unmarked) | 0.98

----------
Assay: PK study in rats after single i.g. administration of IMMH-010 maleate
Assay type: in vivo, Sprague-Dawley rats
Details: female, Sprague-Dawley, po; rat plasma; single i.g. IMMH-010 maleate 100 mg/kg; mean ± SD, n = 5
Overview of recorded Cmax for various compounds

COMPOUND | Cmax
O=C(O)[C@H](CO)NCc1cc(Cl)c(OCc2cccc(-c3ccccc3)c2Br)cc1OCc1cccnc1 [YPD-29B] | 569 ng/mL
CC(C)OC(=O)C(CO)NCc1cc(Cl)c(OCc2cccc(-c3ccccc3)c2Br)cc1OCc1cccnc1 (centres unmarked) [IMMH-010] | 71.4 ng/mL

----------
Test: PK study in rats after single i.g. administration of IMMH-010 maleate
Assay type: in vivo, Sprague-Dawley rats
Details: female, Sprague-Dawley, po; rat plasma; single i.g. IMMH-010 maleate 30 mg/kg; mean ± SD, n = 5
REPORTED_PROPERTY: Cmax (ng/mL)

COMPOUND | REPORTED_PROPERTY | UNIT_LABEL | NUMERIC_READOUT
O=C(O)[C@H](CO)NCc1cc(Cl)c(OCc2cccc(-c3ccccc3)c2Br)cc1OCc1cccnc1 [YPD-29B] | Cmax | ng/mL | 268
CC(C)OC(=O)C(CO)NCc1cc(Cl)c(OCc2cccc(-c3ccccc3)c2Br)cc1OCc1cccnc1 (centres unmarked) [IMMH-010] | Cmax | ng/mL | 28.4

----------
Assay: PK study in rats after single i.g. administration of IMMH-010 maleate
Format: in vivo, Sprague-Dawley rats
Conditions: female, Sprague-Dawley, po; rat plasma; single i.g. IMMH-010 maleate 30 mg/kg; mean ± SD, n = 5
REPORTED_PROPERTY: AUC(0-t)

COMPOUND | REPORTED_PROPERTY | RESULT
CC(C)OC(=O)C(CO)NCc1cc(Cl)c(OCc2cccc(-c3ccccc3)c2Br)cc1OCc1cccnc1 (centres unmarked) | AUC(0-t) | 37.5 ng·h/mL
O=C(O)[C@H](CO)NCc1cc(Cl)c(OCc2cccc(-c3ccccc3)c2Br)cc1OCc1cccnc1 [YPD-29B] | AUC(0-t) | 503 ng·h/mL

----------
Experiment: Tissue distribution study in rats
Format: in vivo, Sprague-Dawley rats
Conditions: female, Sprague-Dawley, rat, oral; thymus; time 0.5; i.g. 10 mg/kg IMMH-010 maleate; read-out: T/P (tissue-to-plasma partition)
REPORTED_PROPERTY: Kp at 0.5 h

MOLECULE | REPORTED_PROPERTY | NUMERIC_READOUT
O=C(O)[C@H](CO)NCc1cc(Cl)c(OCc2cccc(-c3ccccc3)c2Br)cc1OCc1cccnc1 [YPD-29B] | Kp at 0.5 h | 0.05

----------
Assay: Tissue distribution study in rats
Type: in vivo, Sprague-Dawley rats
Conditions: female, Sprague-Dawley, rat, oral; kidney; time 0.25; i.g. 10 mg/kg IMMH-010 maleate; read-out: T/P (tissue-to-plasma partition)
REPORTED_PROPERTY: Kp at 0.25 h

COMPOUND | REPORTED_PROPERTY | NUMERIC_READOUT
O=C(O)[C@H](CO)NCc1cc(Cl)c(OCc2cccc(-c3ccccc3)c2Br)cc1OCc1cccnc1 [YPD-29B] | Kp at 0.25 h | 2

----------
Overview of recorded AUC(0-inf) for various molecules
Experiment: PK study in rats after single i.g. administration of IMMH-010 maleate
Assay type: in vivo, Sprague-Dawley rats
Settings: female, Sprague-Dawley, po; rat plasma; single i.g. IMMH-010 maleate 30 mg/kg; mean ± SD, n = 5

MOLECULE | UNIT_LABEL | AUC(0-inf)
CC(C)OC(=O)C(CO)NCc1cc(Cl)c(OCc2cccc(-c3ccccc3)c2Br)cc1OCc1cccnc1 (centres unmarked) [IMMH-010] | ng·h/mL | 44.1
O=C(O)[C@H](CO)NCc1cc(Cl)c(OCc2cccc(-c3ccccc3)c2Br)cc1OCc1cccnc1 [YPD-29B] | ng·h/mL | 521
